procedure.details: yeast display, Sf9 membrane polyspecificity reagent, FACS + sequencing; frameworks hold sequencing errors
measure: polyreactivity (PSR sort gate)

Please review the following examples before continuing.
Lookup: Fill in the blank: the reported polyreactivity (PSR sort gate) of `QVQLVESGGGLVQAGGSLRLSCAASGRTFSAYAMGWYRQAPGKERELVADIRRGGGTNYADSVKGRFTISRDNAKNTVYLQMNSLKPEDTAVYYCAAGYLRTYTRRYYWGQGTQVTVSS` is ____.
Found: high polyreactivity

Lookup: Endpoint output: polyreactivity (PSR sort gate) of `QVQLVESGGGLVQAGGSLRLSCAASGSTFTYNAMGWYRQAPGTERELVAAISDGDGRTYYADSVKGRFTISRDNAKNTVYLQMNSLKPEDTAVYYCAAVDYAADYPYRNTEVYYWGQGTQVTVSS` . Value?
Found: low polyreactivity

Lookup: Please report the recorded polyreactivity (PSR sort gate) for `QVQLVESGGGLVQAGGSLRLSCAASGFTFSWYAMGCYRQAPGKVRELVAAITSRGGITYYADSVKGRFTISRDNAKNTVYLQMNSLKPEDTAVYYCNAYSQRYGYYYWGQGTQVTVSS` .
Found: high polyreactivity

Lookup: I'd like to know its polyreactivity (PSR sort gate). The sequence in question is `QVQLVESGGGLVQAGGSLRLSCAASGSTFSKNTMGWYRQAPGKERELVAAITTRGSSTYYADSVKGRFTISRDNAKNTVYLQMNSLKPEDTAVYYCAAGRYGWKHVWYYYWGQGTQVTVSS`
Found: high polyreactivity

Lookup: Data request, read-out polyreactivity (PSR sort gate), for `QVQLVESGGGLVQAGGSLRLSCAASGSIFIYYAMGWKRQAPGKERELVAAISWRGGGTYYADSVKGRFTISRDNAKNTVYLQMNSLKPEDTAVYYCAADFYDPFDYWGQGTQVTVSS`
Found: low polyreactivity

Lookup: polyreactivity (PSR sort gate) lookup needed for `QVQLVESGGGLVQAGGSLRLSCAASGRTFSYYTMGWYRQAPGKERELVARISNRGTNTYYADSVKGRFTISRDNAKNTVYLQMNSLKPEDTAVYYCNAAFSVRHLYRYDYWGQGTQVTVSL` , thanks.
Found: low polyreactivity

Lookup: Looking for the measured polyreactivity (PSR sort gate) of `QVQLVESGGGLVQAGGSLRLSCAASGFIFKWNAMGWYRQAPGKERELVAAITSGGGTYYADSVKGRFTISRDNAKNTVYLQMNSLKPEDTAVYYCAGYGYWGQGTQVTVSS` , can you help?
Found: high polyreactivity

Lookup: Tell me the measured polyreactivity (PSR sort gate) of `QVQLVESGGGLVQAGGSLRLSCAASGSTFYLNAMGWYRQAPGKERELVAAISSGGRTYYADSVKGRFTISRDNAKNTVYLQMNSLKPEDTAVYYCNAVRYLRGAYNYWGQGTQVTVSS` , please.
Found: high polyreactivity

***
Lookup: Form field: reported polyreactivity (PSR sort gate) of `QGQRVESGGGLVQAGGSLRLTCAPSGRTFTGYAMGWYRQATGKARELVAGINWSTGSTYYADSVKGRFTISRDNAKNTVYLQMNSLKPEDTAVYYCAAGYYYYGNGRIVQYEYWGQGTQVTVSS`
Found: high polyreactivity

Lookup: # query: polyreactivity (PSR sort gate) of entry `QVHLVESGVGLVQAGGSLRLSCAASGFIFYYNAMGWYRQAPGKERELVAAISRTGGSTYYADSVKGRFTISRDNAKNTVYLQMNSLKPEDTAVYYCAAVGSPNRRPSRWEGSWGQGTQVTVSS`
Found: high polyreactivity

Lookup: Recorded polyreactivity (PSR sort gate) for `QVQLVESGGGLVQAGGSLRLSCAASGFIFYHYVLGWYRQAPGKERELVAAITRGGSTYADSVKGRFTISRDNAKNTVYLQMNSLKPEDTAVYYCNADYPFSYFTRLMDYWGQGTQVTVSS` , please?
Found: low polyreactivity
